# TARGET_OF_ASSAY: Mouse Brain (Mus musculus, UniProt P32300)
# Construct: from tissue; host or cells: mouse brain
# Sequence (P32300 whole entry): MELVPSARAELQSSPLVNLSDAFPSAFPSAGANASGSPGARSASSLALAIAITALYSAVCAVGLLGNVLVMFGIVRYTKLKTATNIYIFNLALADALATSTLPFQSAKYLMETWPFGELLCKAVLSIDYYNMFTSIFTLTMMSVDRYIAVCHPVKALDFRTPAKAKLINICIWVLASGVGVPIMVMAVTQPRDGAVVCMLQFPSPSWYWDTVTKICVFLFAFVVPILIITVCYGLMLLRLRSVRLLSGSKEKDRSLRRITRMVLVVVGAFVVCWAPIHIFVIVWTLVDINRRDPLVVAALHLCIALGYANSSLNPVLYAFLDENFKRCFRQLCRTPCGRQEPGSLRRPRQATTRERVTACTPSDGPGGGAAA
# PROTOCOL_DETAILS: Mouse Brain agonist activity (EC50, % EMAX)
# Format: biochemical
MEASURED_PARAMETER: pEC50
API: returns pEC50 as number; meaning -log10 of concentration in mol/L.

q: pEC50 for CCN(CC)C(=O)c1ccc(C(c2cccc3c2OC(C)(C)C3)N2CCN(Cc3ccccn3)CC2)cc1 (stereo not shown) [Example 4] ?
a: 6.84

----------
# TARGET_OF_ASSAY: HDelta (Homo sapiens)
# Construct: expressed in transfected cells; host or cells: human 293S cells (geneticin-selected)
# Sequence (P41143 whole entry): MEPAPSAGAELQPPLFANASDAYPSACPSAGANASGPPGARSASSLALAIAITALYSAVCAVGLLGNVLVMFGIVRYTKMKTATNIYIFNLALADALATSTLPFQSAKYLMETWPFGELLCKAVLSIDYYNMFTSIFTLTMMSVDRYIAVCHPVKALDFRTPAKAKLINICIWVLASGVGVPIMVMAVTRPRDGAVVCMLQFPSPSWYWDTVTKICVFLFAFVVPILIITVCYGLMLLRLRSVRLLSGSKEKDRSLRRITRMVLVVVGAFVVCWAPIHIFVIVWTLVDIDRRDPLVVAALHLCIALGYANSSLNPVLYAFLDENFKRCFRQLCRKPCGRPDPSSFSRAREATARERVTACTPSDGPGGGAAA
# PROTOCOL_DETAILS: HDelta agonist activity (EC50, % EMAX)
# Assay type: biochemical
# STUDY_CONDITIONS: read-out: HDelta EC50
Structures can show the parent of a compound that is named as a salt.
MEASURED_PARAMETER: EC50 (nM)
Respond numerically; units are nM and should not be typed.

q: # get_value(readout='EC50', item= CCN(CC)C(=O)c1ccc(C(c2cccc3c2OC(C)(C)C3)N2CCN(Cc3cccnc3)CC2)cc1 (stereo not shown) [Example 3, Dihydrochloride] )
a: 19.5
